Measured target: T1, murine BACE1 ECD
T1 construct: analyte of the Octet assay (200 nM) and enzyme of the first short substrate assay
T1 sequence (single chain, as listed by the source limits assumed): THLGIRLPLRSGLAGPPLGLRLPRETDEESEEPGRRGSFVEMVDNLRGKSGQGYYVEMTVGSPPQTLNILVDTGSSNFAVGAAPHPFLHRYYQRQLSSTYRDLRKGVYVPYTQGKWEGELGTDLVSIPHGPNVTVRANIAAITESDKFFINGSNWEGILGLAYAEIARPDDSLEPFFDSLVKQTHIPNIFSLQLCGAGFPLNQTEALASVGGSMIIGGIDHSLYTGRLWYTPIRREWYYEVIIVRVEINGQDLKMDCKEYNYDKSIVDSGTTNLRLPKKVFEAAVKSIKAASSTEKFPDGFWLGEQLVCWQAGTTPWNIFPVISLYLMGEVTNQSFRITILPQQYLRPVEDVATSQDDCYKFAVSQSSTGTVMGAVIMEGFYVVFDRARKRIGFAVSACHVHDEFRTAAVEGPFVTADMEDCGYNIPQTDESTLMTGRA
Assay notes: Octet, pH 5.0;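 also: antibodies captured on anti-human capture sensor tips, dissociation monitored in PBS with BSA buffer, kinetics fitted with a one-to-one binding model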
Observed property: pKd
Entry type: numeric. Quantity: pKd, the -log10 of concentration in molar units.

Binder	Readout value
5982 (antibody, V domains shown, anti-BACE1 IgG) VH: QLQLQESGPGLVKPSETLSLTCTVSGGSISSSSYYWGWIRQPPGKGLEWIGNIYYSGSTYYNPSLKSRVTISVDTSKNQFSLKLSSVTAADTAVYYCARLGHGYSYFDLWGRGTLVTVSS VL: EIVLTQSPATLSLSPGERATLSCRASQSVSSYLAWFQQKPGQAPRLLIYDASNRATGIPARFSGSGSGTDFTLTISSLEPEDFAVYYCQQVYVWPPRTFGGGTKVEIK	8.64

The binder identified as 5894 (antibody, V domains shown, anti-BACE1 IgG) VH: QVQLVQSGAEVKKPGSSVKVSCKASGGTFSGYAISWVRQAPGQGLEWMGNIIPGFGTANYAQKFQGRVTITADESTSTAYMELSSLRSEDTAVYYCARSGGTKYGMLDVWGQGTMVTVSS VL: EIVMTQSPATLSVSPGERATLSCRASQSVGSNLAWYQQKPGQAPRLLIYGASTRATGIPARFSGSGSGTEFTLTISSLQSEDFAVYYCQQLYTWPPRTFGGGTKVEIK registered its pKd at 9.19

Given item 5890 (antibody, V domains shown, anti-BACE1 IgG) VH: QVQLVQSGAEVKKPGSSVKVSCKASGGTFSSYAISWVRQAPGQGLEWMGNIIPGFGTANYAQKFQGRVTITADESTSTAYMELSSLRSEDTAVYYCARSGGTKYGMLDVWGQGTMVTVSS VL: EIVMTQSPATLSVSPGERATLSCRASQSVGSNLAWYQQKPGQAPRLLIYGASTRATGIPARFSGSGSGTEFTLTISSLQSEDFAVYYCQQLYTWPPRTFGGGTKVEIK , the value recorded as its pKd is 9.10

pKd for 5893 (antibody, V domains shown, anti-BACE1 IgG) VH: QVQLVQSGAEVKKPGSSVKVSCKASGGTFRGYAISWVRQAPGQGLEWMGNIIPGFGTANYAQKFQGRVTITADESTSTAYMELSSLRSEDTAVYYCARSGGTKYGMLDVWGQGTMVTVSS VL: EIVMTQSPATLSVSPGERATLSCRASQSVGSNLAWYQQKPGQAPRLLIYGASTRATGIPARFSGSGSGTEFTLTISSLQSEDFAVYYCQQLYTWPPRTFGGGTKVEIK is 9.14

// field: pKd; key: 5897 (antibody, V domains shown, anti-BACE1 IgG) VH: QLQLQESGPGLVKPSETLSLTCTVSGGSISWSSYYWSWIRQPPGKGLEWIGSIYKSGRTYYNPSLKSRVTISVDTSKNQFSLKLSSVTAADTAVYYCARVGHGISYFDLWGRGTLVTVSS VL: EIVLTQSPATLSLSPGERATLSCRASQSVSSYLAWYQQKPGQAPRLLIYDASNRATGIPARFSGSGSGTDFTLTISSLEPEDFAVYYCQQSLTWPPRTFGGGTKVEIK ; value = 9.09
